Measured Kd accompanies every entry in the list below.
Molecular target: UniProt P01116
Sequence (P01116 1-188 isoform P01116-2): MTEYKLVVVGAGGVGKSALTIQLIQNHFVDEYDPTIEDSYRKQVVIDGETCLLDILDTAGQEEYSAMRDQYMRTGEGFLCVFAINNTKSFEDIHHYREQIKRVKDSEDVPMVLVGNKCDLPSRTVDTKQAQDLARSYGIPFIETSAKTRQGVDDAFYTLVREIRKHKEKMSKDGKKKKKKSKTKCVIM
Assay: Binding to KRAS by surface plasmon resonance (SPR), dissociation constant KD
Conditions: Single Cycle Kinetics, 1:1 binding model

smiles.text	Kd / nM
CCO[C@@H]1C[C@H]2C(=O)NC3(CCC3)C(=O)N(C)[C@@H](C3CCCC3)C(=O)N(C)[C@H](C(=O)N(C)C)CC(=O)N(C)[C@@H](CC(C)C)C(=O)N[C@@H]([C@@H](C)CC)C(=O)N(C)CC(=O)N(C)[C@H]3C/C=C\CCN(C3=O)[C@@H](Cc3ccc(F)cc3)C(=O)N(C)CC(=O)N[C@@H](CCc3ccc(Cl)c(Cl)c3)C(=O)N2C1	0.45
CCO[C@@H]1C[C@H]2C(=O)NC3(CCCC3)C(=O)N(C)[C@@H](C(CC)CC)C(=O)N(C)[C@H](C(=O)N3CCCC3)CC(=O)N(C)[C@@H](C)C(=O)N[C@@H]([C@@H](C)CC)C(=O)N(C)CC(=O)N(C)[C@H]3C/C=C\CCN(C3=O)[C@@H](CC3CCCCC3)C(=O)N(C)CC(=O)N[C@@H](CCc3cc(F)c(C(F)(F)F)c(F)c3)C(=O)N2C1	1.1
CCO[C@@H]1C[C@H]2C(=O)NC3(CCC3)C(=O)N(C)[C@@H](C3CCCC3)C(=O)N(C)[C@H](C(=O)N3CCOCC3)CC(=O)N(C)[C@@H](CC3CCC3)C(=O)N[C@@H]([C@@H](C)CC)C(=O)N(C)CC(=O)N(C)[C@H]3CCCCCN(C3=O)[C@@H](Cc3ccc(C(F)(F)F)cc3)C(=O)N(C)CC(=O)N[C@@H](CCc3cc(F)c(C(F)(F)F)c(F)c3)C(=O)N2C1	0.61
CCO[C@@H]1C[C@H]2C(=O)NC3(CC(C)(C)C3)C(=O)N(C)[C@@H](C(CC)CC)C(=O)N(C)[C@H](C(=O)N(C)C)CC(=O)N(C)[C@@H](CC(C)C)C(=O)N[C@@H]([C@@H](C)CC)C(=O)N(C)CC(=O)N(C)[C@H]3C/C=C\CCN(C3=O)[C@@H](Cc3ccc(C)cc3)C(=O)N(C)CC(=O)N[C@@H](CCc3ccc(C(F)(F)F)c(Cl)c3)C(=O)N2C1	0.34
CCO[C@@H]1C[C@H]2C(=O)NC3(CCCC3)C(=O)N(C)[C@@H](C3CCCC3)C(=O)N(C)[C@H](C(=O)N(C)C)CC(=O)N(C)[C@@H](CC(C)C)C(=O)N[C@@H]([C@@H](C)CC)C(=O)N(C)CC(=O)N(C)[C@H]3C/C=C\CCN(C3=O)[C@@H](CC3CCC(F)(F)CC3)C(=O)N(C)CC(=O)N[C@@H](CCc3cc(F)c(C(F)(F)F)c(F)c3)C(=O)N2C1	0.2
CCC[C@H]1C(=O)N[C@@H]([C@@H](C)CC)C(=O)N(C2CC2)CC(=O)N(C)[C@H]2C/C=C\CCN(C2=O)[C@@H](CC2CCCCC2)C(=O)N(C)CC(=O)N[C@@H](CCc2ccc(C(F)(F)F)c(OC)c2)C(=O)N2C[C@H](OCC)C[C@H]2C(=O)N(C)C2(CCC2)C(=O)N(C)[C@@H](C2CCCC2)C(=O)N(C)[C@H](C(=O)N(C)C)CC(=O)N1C	1.1
